measured on: UniProtKB P30988
Sequence (P30988 whole entry): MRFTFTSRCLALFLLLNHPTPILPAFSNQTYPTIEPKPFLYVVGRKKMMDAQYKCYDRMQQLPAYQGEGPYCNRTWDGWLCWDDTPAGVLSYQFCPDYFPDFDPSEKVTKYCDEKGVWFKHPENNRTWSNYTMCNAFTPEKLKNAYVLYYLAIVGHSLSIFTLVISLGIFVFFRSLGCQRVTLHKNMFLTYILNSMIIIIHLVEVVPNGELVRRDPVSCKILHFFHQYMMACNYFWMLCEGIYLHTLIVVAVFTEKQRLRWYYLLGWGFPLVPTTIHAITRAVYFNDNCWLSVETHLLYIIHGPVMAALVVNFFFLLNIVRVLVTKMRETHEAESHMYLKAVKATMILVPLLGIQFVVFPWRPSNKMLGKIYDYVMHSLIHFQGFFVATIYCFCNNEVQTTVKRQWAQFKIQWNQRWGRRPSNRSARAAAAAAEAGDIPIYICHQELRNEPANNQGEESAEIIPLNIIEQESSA
Assay type: cell membranes, Membrane
condition summary: t47d
metric name: IC50

Example results:
{"molecule": "COc1cc(OC)c(C(=O)CCCN2CCCC2)c(OC)c1", "recorded result": "Not Active"}
{"molecule": "O=c1[nH]c(=O)n([C@H]2C[C@H](O)[C@@H](CO)O2)cc1F", "recorded result": "Not Active"}
{"molecule": "CC[C@]1(O)C[C@@H]2CN(CCc3c([nH]c4ccccc34)[C@@](C(=O)OC)(c3cc4c(cc3OC)N(C)[C@H]3[C@@](O)(C(N)=O)[C@H](O)[C@]5(CC)C=CCN6CC[C@]43[C@@H]65)C2)C1", "recorded result": "Not Active"}
{"molecule": "C[C@H]1COc2c(N3CCN(C)CC3)c(F)cc3c(=O)c(C(=O)O)cn1c23.C[C@H]1COc2c(N3CCN(C)CC3)c(F)cc3c(=O)c(C(=O)O)cn1c23.O", "recorded result": "Not Active"}

Using the record for CN1CCN(c2c(F)cc3c(=O)c(C(=O)O)cn(CCF)c3c2F)CC1 , state its measured IC50.
Not Active

Using the record for O=C(O)CCCc1cccs1 , state its measured IC50.
Not Active

Using the record for O=C(O)CCNC(=O)c1ccc(/N=N/c2ccc(O)c(C(=O)O)c2)cc1 [BALSALAZIDE] , state its measured IC50.
Not Active

Using the record for CCCNC(=O)NS(=O)(=O)c1ccc(Cl)cc1 [CHLORPROPAMIDE] , state its measured IC50.
Not Active

Using the record for Clc1ccc(COC(Cn2ccnc2)c2ccc(Cl)cc2Cl)c(Cl)c1 (stereo not drawn) , state its measured IC50.
Not Active

----------
measured on: D(1A) dopamine receptor (Homo sapiens, UniProt P21728)
Sequence (P21728 whole entry): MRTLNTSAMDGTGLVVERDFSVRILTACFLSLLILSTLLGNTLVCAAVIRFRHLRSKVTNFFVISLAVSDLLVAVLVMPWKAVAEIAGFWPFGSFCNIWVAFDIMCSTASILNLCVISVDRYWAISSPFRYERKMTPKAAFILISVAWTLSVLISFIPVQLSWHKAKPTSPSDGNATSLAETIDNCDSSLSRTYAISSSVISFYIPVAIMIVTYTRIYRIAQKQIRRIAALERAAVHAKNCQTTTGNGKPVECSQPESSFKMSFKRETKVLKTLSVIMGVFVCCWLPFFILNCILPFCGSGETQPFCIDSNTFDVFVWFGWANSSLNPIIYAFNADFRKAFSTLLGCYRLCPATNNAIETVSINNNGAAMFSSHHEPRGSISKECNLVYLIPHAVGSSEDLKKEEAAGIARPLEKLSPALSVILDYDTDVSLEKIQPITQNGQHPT
test description: DRUGMATRIX: Dopamine D1 radioligand binding (ligand: [3H] SCH-23390)
Assay type: cell membranes, CHO, Membrane
condition summary: cho; Not Active = under 50% inhibition at 10 µM

{"substance": "ZIRCONIUM(IV) CHLORIDE", "IC50": "Not Active"}
{"substance": "TRANSPLATIN", "IC50": "Not Active"}
{"substance": "COLISTIN", "IC50": "Not Active"}
{"substance": "COBALTOUS CHLORIDE", "IC50": "Not Active"}

----------
measured on: Polyunsaturated fatty acid lipoxygenase ALOX15 (Oryctolagus cuniculus, UniProt P12530)
Sequence (P12530 whole entry): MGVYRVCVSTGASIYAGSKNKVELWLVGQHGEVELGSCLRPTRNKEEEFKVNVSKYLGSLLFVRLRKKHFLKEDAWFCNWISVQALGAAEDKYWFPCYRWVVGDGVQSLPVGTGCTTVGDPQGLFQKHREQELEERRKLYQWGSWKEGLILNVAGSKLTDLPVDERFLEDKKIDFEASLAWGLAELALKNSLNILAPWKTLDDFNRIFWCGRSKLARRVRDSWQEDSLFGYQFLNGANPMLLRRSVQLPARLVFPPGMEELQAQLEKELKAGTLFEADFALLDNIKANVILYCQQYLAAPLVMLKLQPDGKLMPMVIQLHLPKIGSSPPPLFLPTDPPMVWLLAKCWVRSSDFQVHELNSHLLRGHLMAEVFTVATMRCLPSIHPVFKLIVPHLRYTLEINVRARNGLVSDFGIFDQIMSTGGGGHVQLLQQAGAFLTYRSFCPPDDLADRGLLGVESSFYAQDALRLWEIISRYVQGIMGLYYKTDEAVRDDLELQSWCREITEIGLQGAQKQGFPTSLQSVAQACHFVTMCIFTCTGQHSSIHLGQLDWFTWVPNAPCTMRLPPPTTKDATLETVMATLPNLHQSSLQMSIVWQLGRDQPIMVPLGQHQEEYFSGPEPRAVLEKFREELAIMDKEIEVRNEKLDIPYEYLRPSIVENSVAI
test description: biochemical
Type: tissue-based, Reticulocytes
condition summary: read-out: IC50
metric name: pIC50
The read-out pIC50 is expressed as -log10 of concentration in moles per litre.

{"molecule": "O=c1c(-c2ccc(O)cc2)coc2cc(O)cc(O)c12", "measured on": "Polyunsaturated fatty acid lipoxygenase ALOX15 (Oryctolagus cuniculus, UniProt P12530)", "pIC50": 5.04}
{"molecule": "COc1ccccc1N", "measured on": "Polyunsaturated fatty acid lipoxygenase ALOX15 (Oryctolagus cuniculus, UniProt P12530)", "pIC50": 5.69}
{"molecule": "Cc1c(O)cccc1C(=O)N[C@@H](CSc1ccccc1)[C@H](O)CN1C[C@H]2CCCC[C@H]2C[C@H]1C(=O)NC(C)(C)C", "measured on": "Polyunsaturated fatty acid lipoxygenase ALOX15 (Oryctolagus cuniculus, UniProt P12530)", "pIC50": 4.86}

Continue with the compound presented below.
Using the record for C[C@]12CC[C@@H]3c4ccc(O)cc4CC[C@H]3[C@@H]1C[C@@H](O)[C@@H]2O , state its measured pIC50.
5.06

----------
measured on: UniProt P25103
Sequence (P25103 whole entry): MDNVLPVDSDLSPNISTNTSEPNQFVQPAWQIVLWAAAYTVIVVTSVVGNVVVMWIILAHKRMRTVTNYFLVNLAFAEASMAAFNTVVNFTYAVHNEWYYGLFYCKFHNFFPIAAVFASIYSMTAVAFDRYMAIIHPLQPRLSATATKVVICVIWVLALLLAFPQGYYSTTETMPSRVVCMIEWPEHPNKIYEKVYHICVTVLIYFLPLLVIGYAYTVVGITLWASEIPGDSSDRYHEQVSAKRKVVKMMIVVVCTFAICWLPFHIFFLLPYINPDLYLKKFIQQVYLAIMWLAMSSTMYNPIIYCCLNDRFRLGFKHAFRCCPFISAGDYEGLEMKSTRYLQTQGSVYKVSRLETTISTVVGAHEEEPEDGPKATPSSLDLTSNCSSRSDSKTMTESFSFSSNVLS
Type: cell membranes, CHO, Membrane
condition summary: read-out: Ki
metric name: pKi
The read-out pKi is expressed as -log10 of concentration in moles per litre.

Report value only: pKi, UniProt P25103, Clc1ccc(COC(Cn2ccnc2)c2ccc(Cl)cc2Cl)c(Cl)c1 (stereo unspecified)
5.43

----------
test description: DRUGMATRIX: Phosphodiesterase PDE4 enzyme inhibition (substrate: [3H]cAMP + cAMP)
condition summary: u-937; Not Active = under 50% inhibition at 10 µM
metric name: Ki

Example results:
{"molecule": "CCN(C(C)=O)c1cccc(-c2ccnc3c(C#N)cnn23)c1 [ZALEPLON]", "Ki": "Not Active"}
{"molecule": "NCCCNCCSP(=O)(O)O [AMIFOSTINE]", "Ki": "Not Active"}
{"molecule": "CC(C)c1c(C(=O)Nc2ccccc2)c(-c2ccccc2)c(-c2ccc(F)cc2)n1CC[C@@H](O)C[C@@H](O)CC(=O)O [ATORVASTATIN]", "Ki": "Not Active"}
{"molecule": "Cn1c(=O)c2c(ncn2C)n(C)c1=O [CAFFEINE]", "Ki": "Not Active"}

Continue with the molecule presented below.
Using the record for CCn1cc(C(=O)O)c(=O)c2cc(F)c(N3CCNC(C)C3)c(F)c21 (stereo not given) [LOMEFLOXACIN] , state its measured Ki.
Not Active

----------
measured on: Sodium-dependent dopamine transporter (Homo sapiens)
Sequence (Q01959 whole entry): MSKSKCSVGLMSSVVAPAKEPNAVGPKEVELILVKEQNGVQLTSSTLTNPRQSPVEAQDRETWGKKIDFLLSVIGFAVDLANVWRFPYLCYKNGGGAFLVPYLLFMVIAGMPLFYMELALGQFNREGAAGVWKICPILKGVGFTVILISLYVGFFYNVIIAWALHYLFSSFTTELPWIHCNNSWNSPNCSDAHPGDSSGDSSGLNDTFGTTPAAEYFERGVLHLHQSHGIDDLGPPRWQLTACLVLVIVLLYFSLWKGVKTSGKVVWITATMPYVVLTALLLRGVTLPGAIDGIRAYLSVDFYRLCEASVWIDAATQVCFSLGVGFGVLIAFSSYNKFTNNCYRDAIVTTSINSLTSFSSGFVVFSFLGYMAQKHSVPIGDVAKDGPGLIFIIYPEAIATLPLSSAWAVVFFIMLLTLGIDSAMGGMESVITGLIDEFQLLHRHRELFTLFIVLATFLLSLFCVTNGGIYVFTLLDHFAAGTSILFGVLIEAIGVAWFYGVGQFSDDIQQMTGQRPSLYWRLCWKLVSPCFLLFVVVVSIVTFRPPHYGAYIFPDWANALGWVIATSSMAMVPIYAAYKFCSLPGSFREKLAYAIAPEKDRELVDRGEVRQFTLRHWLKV
test description: DRUGMATRIX: Dopamine Transporter radioligand binding (ligand: [125I] RTI-55)
Type: cell membranes, CHO-K1, Membrane
condition summary: Not Active = under 50% inhibition at 10 µM; read-out: IC50
metric name: IC50 (µM)
Your answer is read as µM, so omit the unit and give the number.

Example results:
{"compound": "Cc1c(O)cccc1C(=O)N[C@@H](CSc1ccccc1)[C@H](O)CN1C[C@H]2CCCC[C@H]2C[C@H]1C(=O)NC(C)(C)C", "measured on": "Sodium-dependent dopamine transporter (Homo sapiens)", "output unit": "µM", "IC50": 15.5}
{"compound": "CS(=O)(=O)Nc1ccc([N+](=O)[O-])cc1Oc1ccccc1 [NIMESULIDE]", "measured on": "Sodium-dependent dopamine transporter (Homo sapiens)", "output unit": "µM", "IC50": 14.9}
{"compound": "O=c1c(-c2ccc(O)cc2)coc2cc(O)cc(O)c12", "measured on": "Sodium-dependent dopamine transporter (Homo sapiens)", "output unit": "µM", "IC50": 16.9}

Continue with the compound presented below.
Using the record for CN1CCN(C(c2ccccc2)c2ccccc2)CC1 , state its measured IC50.
0.763

----------
measured on: UniProt:P41595
Sequence (P41595 whole entry): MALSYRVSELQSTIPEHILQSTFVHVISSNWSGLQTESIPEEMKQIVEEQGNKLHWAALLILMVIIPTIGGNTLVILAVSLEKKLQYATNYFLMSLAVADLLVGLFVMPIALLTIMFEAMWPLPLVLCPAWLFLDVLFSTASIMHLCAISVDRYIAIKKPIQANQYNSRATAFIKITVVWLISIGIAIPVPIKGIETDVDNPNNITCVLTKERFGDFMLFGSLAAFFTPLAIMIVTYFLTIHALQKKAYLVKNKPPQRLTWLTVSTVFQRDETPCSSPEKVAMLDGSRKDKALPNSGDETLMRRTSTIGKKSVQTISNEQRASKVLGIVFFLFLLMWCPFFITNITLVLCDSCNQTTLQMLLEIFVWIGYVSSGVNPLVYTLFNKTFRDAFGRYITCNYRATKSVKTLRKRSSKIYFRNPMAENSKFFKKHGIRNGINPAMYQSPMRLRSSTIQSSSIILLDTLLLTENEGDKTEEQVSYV
Assay type: cell membranes, CHO-K1, Membrane
condition summary: cho-k1
metric name: IC50

Example results:
{"compound": "C[S+](C)[O-] [DIMETHYL SULFOXIDE]", "recorded result": "Not Active"}
{"compound": "CC(O)(P(=O)(O)O)P(=O)(O)O", "recorded result": "Not Active"}
{"compound": "CC(=O)OCC(=O)[C@@]12OC(C)(C)O[C@@H]1C[C@H]1[C@@H]3C[C@H](F)C4=CC(=O)C=C[C@]4(C)[C@@]3(F)[C@@H](O)C[C@@]12C [FLUOCINONIDE]", "recorded result": "Not Active"}
{"compound": "C[C@H]1O[C@H](O[C@H]2[C@H](O)[C@@H](O)[C@@H](O[C@H]3[C@H](O)[C@@H](O)C(O)O[C@@H]3CO)O[C@@H]2CO)[C@H](O)[C@@H](O)[C@@H]1N[C@H]1C=C(CO)[C@@H](O)[C@H](O)[C@H]1O (stereo partly specified)", "recorded result": "Not Active"}
{"compound": "Cc1ccc(C(=O)c2ccc(CC(=O)O)n2C)cc1", "recorded result": "Not Active"}
{"compound": "O=C(c1ccccc1F)N1CCC(Cc2ccccc2)CC1", "recorded result": "Not Active"}

Using the record for O=C1C[C@@H]2OCC=C3CN4CC[C@]56c7ccccc7N1[C@H]5[C@H]2[C@H]3C[C@H]46 , state its measured IC50.
Not Active

Using the record for CNC1=Nc2ccc(Cl)cc2C(c2ccccc2)=[N+]([O-])C1 [CHLORDIAZEPOXIDE] , state its measured IC50.
Not Active

Using the record for CC(=O)OC[C@H]1O[C@@H](n2ncc(=O)[nH]c2=O)[C@H](OC(C)=O)[C@@H]1OC(C)=O , state its measured IC50.
Not Active

Using the record for C[C@@H]1C/C=C/C=C/C=C/C=C/[C@H](O[C@@H]2O[C@H](C)[C@@H](O)[C@H](N)[C@@H]2O)C[C@@H]2O[C@](O)(C[C@@H](O)C[C@H]3O[C@@H]3/C=C/C(=O)O1)C[C@H](O)[C@H]2C(=O)O , state its measured IC50.
Not Active

Using the record for CCOc1nc2cccc(C(=O)O)c2n1Cc1ccc(-c2ccccc2-c2nnn[nH]2)cc1 , state its measured IC50.
Not Active

Using the record for CN1C(=O)CN=C(c2ccccc2)c2cc([N+](=O)[O-])ccc21 , state its measured IC50.
Not Active

Using the record for CCCNC(C)C(=O)Nc1ccccc1C (stereo unspecified) , state its measured IC50.
Not Active

Using the record for N[C@@H](Cn1ccc(=O)c(O)c1)C(=O)O , state its measured IC50.
Not Active

Using the record for C[C@@](Cc1ccc(O)c(O)c1)(NN)C(=O)O.O , state its measured IC50.
Not Active

Using the record for CC[C@H]1[C@@H]2C[C@H]3[C@@H]4N(C)c5ccccc5[C@]45C[C@@H]([C@@H]2[C@H]5O)N3[C@@H]1O , state its measured IC50.
Not Active
